Molecular target: recombinant PRL-2 (Homo sapiens, UniProt Q12974)
Construct: 6xHis (N, cleaved yes); made in house; host or cells: E. coli One Shot BL21 Star
Sequence (Q12974 1-167): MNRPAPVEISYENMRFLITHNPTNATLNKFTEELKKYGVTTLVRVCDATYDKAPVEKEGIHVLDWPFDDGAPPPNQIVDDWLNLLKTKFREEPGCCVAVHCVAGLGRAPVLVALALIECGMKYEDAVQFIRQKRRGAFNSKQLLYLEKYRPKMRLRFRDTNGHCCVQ
Test: In vitro phosphatase assay (DiFMUP hydrolysis), PRL-2;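 note: PRL-2 activity read as DiFMUP hydrolysis after 20 min at room temperature with drug, enzyme first pre-reduced at 4 °C for 20 min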
Format: biochemical
Settings: FDA-approved drug screen; activity compared to DMSO
Counter-ions that a name gives are not always drawn.
Where % Phosphatase Activity (compared to DMSO) PRL-2 equals or exceeds 90%, the correct label is 1; where it does not, the label is -1.

Entry Cc1ccc(NC(=O)C2(c3ccc4c(c3)OC(F)(F)O4)CC2)nc1-c1cccc(C(=O)O)c1 : is its % Phosphatase Activity (compared to DMSO) PRL-2 no less than 90%?
1

Entry CN(C)CCN(Cc1ccccc1)c1ccccn1 [Tripelennamine HCl] : is its % Phosphatase Activity (compared to DMSO) PRL-2 no less than 90%?
1

Entry CC1(C)[C@H](C(=O)O)N2C(=O)C[C@H]2S1(=O)=O [Sulbactam sodium] : is its % Phosphatase Activity (compared to DMSO) PRL-2 no less than 90%?
1

Entry CCN(CC)CCNC(=O)c1c(C)[nH]c(/C=C2\C(=O)Nc3ccc(F)cc32)c1C [Sunitinib Malate] : is its % Phosphatase Activity (compared to DMSO) PRL-2 no less than 90%?
-1

Entry COCC[n+]1c2c(n(Cc3cnccn3)c1C)C(=O)c1ccccc1C2=O.[Br-] [YM155 (Sepantronium Bromide)] : is its % Phosphatase Activity (compared to DMSO) PRL-2 no less than 90%?
-1

Entry O=c1cc[nH]c(=O)[nH]1 : is its % Phosphatase Activity (compared to DMSO) PRL-2 no less than 90%?
1

Entry CC(C)(C)NC[C@H](O)COc1nsnc1N1CCOCC1 [Timolol Maleate] : is its % Phosphatase Activity (compared to DMSO) PRL-2 no less than 90%?
1

Entry CC1(C)O[C@@H]2C[C@H]3[C@@H]4CCC5=CC(=O)C=C[C@]5(C)[C@@]4(F)[C@@H](O)C[C@]3(C)[C@]2(C(=O)CO)O1 [Triamcinolone Acetonide] : is its % Phosphatase Activity (compared to DMSO) PRL-2 no less than 90%?
1

Entry C[C@]1(c2nc3c(C(N)=O)cccc3[nH]2)CCCN1 : is its % Phosphatase Activity (compared to DMSO) PRL-2 no less than 90%?
1

Entry CCCc1nn(C)c2c(=O)[nH]c(-c3cc(S(=O)(=O)N4CCN(C)CC4)ccc3OCC)nc12.CS(=O)(=O)O [Sildenafil Mesylate] : is its % Phosphatase Activity (compared to DMSO) PRL-2 no less than 90%?
-1

Entry CCOC(N)=O : is its % Phosphatase Activity (compared to DMSO) PRL-2 no less than 90%?
1

Entry CC(=O)Nc1cccc(-n2c(=O)n(C3CC3)c(=O)c3c(Nc4ccc(I)cc4F)n(C)c(=O)c(C)c32)c1 : is its % Phosphatase Activity (compared to DMSO) PRL-2 no less than 90%?
1

Entry CCCC(CCC)C(=O)[O-].[Na+] : is its % Phosphatase Activity (compared to DMSO) PRL-2 no less than 90%?
-1

Entry CNS(=O)(=O)Cc1ccc2[nH]cc(CCN(C)C)c2c1 [Sumatriptan Succinate] : is its % Phosphatase Activity (compared to DMSO) PRL-2 no less than 90%?
-1

Entry O=C1O[C@H]([C@@H](O)CO)C(O)=C1O : is its % Phosphatase Activity (compared to DMSO) PRL-2 no less than 90%?
1

Entry O=c1[nH]c(=O)n([C@H]2C[C@H](O)[C@@H](CO)O2)cc1C(F)(F)F : is its % Phosphatase Activity (compared to DMSO) PRL-2 no less than 90%?
1
